experiment: Cellular IC50 of LBH589; format: cell-based
Metric: pIC50
Convention used: pIC50 is expressed as -log10 of the molar concentration.

Prompt line: For `Cc1[nH]c2ccccc2c1CCNCc1ccc(/C=C/C(=O)NO)cc1` , what is its reported pIC50?
Response line: 7.30
